These data points were gathered from patent US10508118B2.

- system: EML4-ALK-BaF3 (Homo sapiens, UniProt Q9UM73)
- Construct: expressed in transfected cells; host or cells: Ba/F3 cells; the other entry of the earlier key: EML4 (Q9HC35, Echinoderm microtubule-associated protein-like 4)
- Sequence (Q9UM73 1058-1620 limits assumed): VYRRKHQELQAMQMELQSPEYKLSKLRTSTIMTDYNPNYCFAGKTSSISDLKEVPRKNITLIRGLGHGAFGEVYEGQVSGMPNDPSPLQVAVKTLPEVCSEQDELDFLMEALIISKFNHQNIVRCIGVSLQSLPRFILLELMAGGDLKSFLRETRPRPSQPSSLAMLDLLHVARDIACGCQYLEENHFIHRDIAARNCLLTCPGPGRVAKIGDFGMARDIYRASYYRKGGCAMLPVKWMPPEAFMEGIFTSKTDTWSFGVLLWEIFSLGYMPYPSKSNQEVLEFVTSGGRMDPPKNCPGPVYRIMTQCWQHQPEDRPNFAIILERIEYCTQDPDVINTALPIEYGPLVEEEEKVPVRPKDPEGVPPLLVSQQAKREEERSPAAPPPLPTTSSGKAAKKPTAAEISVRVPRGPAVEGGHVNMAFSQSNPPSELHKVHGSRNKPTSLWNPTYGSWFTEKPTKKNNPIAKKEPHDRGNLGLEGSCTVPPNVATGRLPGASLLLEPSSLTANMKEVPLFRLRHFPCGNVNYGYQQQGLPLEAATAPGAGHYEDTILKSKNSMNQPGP
- assay-protocol: Growth inhibition of EML4-ALK transformed BaF3 cells (MTS)
- Assay type: cell-based
- cond: EML4-ALK-BaF3 cells, 48 hours, MTS; Table 11
- Method: If compounds can inhibit the activity of ALK kinase or the activity of ALK signaling pathway, they can inhibit the growth of ALK transformed Ba/F3 cells. […] The broad-spectrum toxicity of compounds can be evaluated by determining the effect of the compounds on the growth of wild type BaF3 cells. […] 4) Calculation of IC50 value: the semi inhibitory concentration of the compound acting on the cells was calculated using GradPad Prism 5 software according to the cell inhibitory rate measured.
Items are presented alongside their recorded IC50.
Write down the numeric answer in nM and omit the unit.

# count of solved cases: 7
{"columns": ["smiles-representation", "IC50 (nM)"],
 "data": [
  ["COC(=O)c1cccc(Nc2nc(Nc3ccc(N4CCC(N5CCN(C)CC5)CC4)cc3OC)nc3cc[nH]c23)c1", 1810],
  ["CC(C)S(=O)(=O)c1ccccc1Nc1nc(Nc2cnn(C3CCN(C)CC3)c2)nc2cc[nH]c12", 5170],
  ["COC(=O)c1cccc(Nc2nc(Nc3ccc(N4CCC(O)CC4)cc3)nc3cc[nH]c23)c1", 7470],
  ["CC(C)Sc1ccccc1Nc1nc(Nc2ccc(N3CCC(O)CC3)cc2)nc2cc[nH]c12", 786],
  ["CC(C)Sc1ccccc1CNc1nc(Nc2ccc(S(N)(=O)=O)cc2)nc2cc[nH]c12", 7530],
  ["COc1cc(N2CCN(C)CC2)ccc1Nc1nc(NCc2ccccc2S(=O)(=O)C(C)C)c2[nH]ccc2n1", 1720],
  ["COc1cc(N2CCN(C)CC2)ccc1Nc1nc(Nc2ccccc2S(C)(=O)=O)c2[nH]ccc2n1", 3930]
]}

Now examine the next entry.
Input line: So what does the record say about IC50 for "COc1cc(N2CCN(C)CC2)ccc1Nc1nc(NCc2ccccc2SC)c2[nH]ccc2n1" ?
Output line: 1320

###

# reported IC50; entries follow
- system: EML4-ALK (L1196M)-BaF3 (Homo sapiens, UniProt Q9UM73, L1196M)
- Construct: expressed in transfected cells; host or cells: Ba/F3 cells; the other entry of the earlier key: EML4 (Q9HC35, Echinoderm microtubule-associated protein-like 4)
- assay-protocol: Growth inhibition of EML4-ALK (L1196M) transformed BaF3 cells (MTS)
- Assay type: cell-based
- cond: 48 hours, Table 11, read-out: EML4-ALK (L1196M) (IC50 nM)

Here's what some known entries look like.
{"columns": ["compound", "system", "endpoint-value"],
 "data": [
  ["COC(=O)c1ccccc1Nc1nc(Nc2ccc(N3CCN(C)CC3)cc2)nc2cc[nH]c12 [IG-6]", "EML4-ALK (L1196M)-BaF3 (Homo sapiens, UniProt Q9UM73, L1196M)", "1520 nM"],
  ["NS(=O)(=O)c1ccc(Nc2nc(NC3CC3)c3[nH]ccc3n2)cc1 [IS-4]", "EML4-ALK (L1196M)-BaF3 (Homo sapiens, UniProt Q9UM73, L1196M)", "> 10000 nM"],
  ["CC(C)S(=O)(=O)c1ccccc1Nc1nc(Nc2ccc(N3CCN(C)CC3)cc2)nc2cc[nH]c12 [ID-2]", "EML4-ALK (L1196M)-BaF3 (Homo sapiens, UniProt Q9UM73, L1196M)", "2030 nM"],
  ["COc1cc(N2CCC(N3CCN(C)CC3)CC2)ccc1Nc1nc(NC2CC2)c2[nH]ccc2n1 [IS-2]", "EML4-ALK (L1196M)-BaF3 (Homo sapiens, UniProt Q9UM73, L1196M)", "5030 nM"],
  ["CC(C)S(=O)(=O)c1ccccc1Nc1nc(Nc2ccc(S(N)(=O)=O)cc2)nc2cc[nH]c12 [ID-5]", "EML4-ALK (L1196M)-BaF3 (Homo sapiens, UniProt Q9UM73, L1196M)", "> 10000 nM"],
  ["COC(=O)c1ccccc1Nc1nc(Nc2ccc(N3CCOCC3)cc2)nc2cc[nH]c12 [IG-5]", "EML4-ALK (L1196M)-BaF3 (Homo sapiens, UniProt Q9UM73, L1196M)", "> 10000 nM"]
]}

Input line: I'm curious: which IC50 was measured for CS(=O)(=O)c1ccccc1Nc1nc(Nc2ccc(S(N)(=O)=O)cc2)nc2cc[nH]c12 [IC-4] tested on EML4-ALK (L1196M)-BaF3 (Homo sapiens, UniProt Q9UM73, L1196M)?
Output line: > 10000 nM

Input line: Now consider CN1CCN(c2ccc(Nc3nc(NCc4ccccc4S(C)(=O)=O)c4[nH]ccc4n3)cc2)CC1 [IN-5] and answer again.
Output line: > 10000 nM

###

- system: NPM-ALK-BaF3 (Homo sapiens, UniProt Q9UM73)
- Construct: expressed in transfected cells; host or cells: Ba/F3 cells; the other entry of the earlier key: NPM1 (P06748, Nucleophosmin)
- Sequence (Q9UM73 with tags, fused parts or gaps): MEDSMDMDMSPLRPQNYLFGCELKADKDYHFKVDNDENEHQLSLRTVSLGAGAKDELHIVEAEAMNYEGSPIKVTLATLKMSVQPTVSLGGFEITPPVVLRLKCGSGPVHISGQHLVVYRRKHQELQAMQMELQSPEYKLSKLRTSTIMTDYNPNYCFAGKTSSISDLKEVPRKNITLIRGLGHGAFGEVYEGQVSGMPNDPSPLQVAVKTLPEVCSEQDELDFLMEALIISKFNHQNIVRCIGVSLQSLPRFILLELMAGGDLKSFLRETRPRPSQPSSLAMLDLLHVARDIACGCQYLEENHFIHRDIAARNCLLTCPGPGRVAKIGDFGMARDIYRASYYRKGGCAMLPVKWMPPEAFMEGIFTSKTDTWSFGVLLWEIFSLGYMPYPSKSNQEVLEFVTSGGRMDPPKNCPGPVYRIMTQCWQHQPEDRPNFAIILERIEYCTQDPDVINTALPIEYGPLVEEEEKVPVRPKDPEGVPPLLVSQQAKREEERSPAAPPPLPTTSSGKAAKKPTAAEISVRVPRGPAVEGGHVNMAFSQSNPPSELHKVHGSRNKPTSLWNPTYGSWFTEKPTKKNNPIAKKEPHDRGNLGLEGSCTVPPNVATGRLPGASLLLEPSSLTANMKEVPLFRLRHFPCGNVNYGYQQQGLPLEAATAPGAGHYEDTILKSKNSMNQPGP
- assay-protocol: Growth inhibition of NPM-ALK transformed BaF3 cells (MTS)
- Assay type: cell-based
- cond: 48 hours, Table 12
measurement-kind: IC50 (nM)
Record the value in nM, omitting the unit from your answer.

{"columns": ["smiles-representation", "measurement-unit", "IC50"],
 "data": [
  ["COc1cc(N2CCN(C)CC2)ccc1Nc1nc(Nc2ccccc2S(=O)(=O)C(C)C)c2c(ccn2C)n1", "nM", 2260]
]}

Let us move to another entry and its IC50.
Input line: Any idea what its IC50 is? The molecule is "CC(C)Sc1ccccc1Nc1nc(Nc2ccc(S(N)(=O)=O)cc2)nc2ccn(C)c12"
Output line: 4570

###

- system: EML4-ALK-BaF3 (Homo sapiens, UniProt Q9UM73)
- Construct: expressed in transfected cells; host or cells: Ba/F3 cells; the other entry of the earlier key: EML4 (Q9HC35, Echinoderm microtubule-associated protein-like 4)
- assay-protocol: Growth inhibition of EML4-ALK transformed BaF3 cells (MTS)
- Assay type: cell-based
- cond: EML4-ALK-BaF3 cells, 48 hours, MTS; Table 11
measurement-kind: IC50 (nM)
Return type: number; implicit unit nM.

{"columns": ["compound", "IC50 / nM"],
 "data": [
  ["Cc1cc(Nc2nc(Nc3ccccc3S(=O)(=O)C(C)C)c3[nH]ccc3n2)c(OC(C)C)cc1C1CCN(C)CC1 [ID-6]", 1510]
]}

Shift focus to the following entry.
Input line: So what does the record say about IC50 for COC(=O)c1ccccc1Nc1nc(Nc2ccc(S(N)(=O)=O)cc2)nc2cc[nH]c12 [IG-4] ?
Output line: 5110

###

Catalogue of IC50 readings, one per entry.
- system: NPM-ALK-BaF3 (Homo sapiens)
- Construct: expressed in transfected cells; host or cells: Ba/F3 cells; the other entry of the earlier key: NPM1 (P06748, Nucleophosmin)
- assay-protocol: Growth inhibition of NPM-ALK transformed BaF3 cells (MTS)
- Type: cell-based
- cond: 48 hours, Table 12
Please reply with the bare figure in nM and do not write the unit itself.

Recorded results for 5 compounds are shown here.
{"columns": ["smiles-representation", "endpoint-value"],
 "data": [
  ["CSc1ccccc1Nc1nc(Nc2ccc(N3CCN(C)CC3)cc2)nc2ccn(C)c12", 536],
  ["COc1cc(N2CCN(C)CC2)ccc1Nc1nc(Nc2ccccc2SC)c2c(ccn2C)n1", 512],
  ["COC(=O)c1ccccc1Nc1nc(Nc2ccc(N3CCC(N4CCN(C)CC4)CC3)cc2OC)nc2ccn(C)c12", 4890],
  ["CC(C)S(=O)(=O)c1ccccc1CNc1nc(Nc2ccc(N3CCC(O)CC3)cc2)nc2ccn(C)c12", 7440],
  ["CSc1ccccc1CNc1nc(Nc2ccc(S(N)(=O)=O)cc2)nc2ccn(C)c12", 3710]
]}

Input line: So what's the measured IC50 for this one? "Cn1ccc2nc(Nc3ccc(N4CCC(O)CC4)cc3)nc(Nc3ccccc3S(C)(=O)=O)c21"
Output line: 11800

Input line: Try this compound next: "COc1cc(N2CCC(N3CCN(C)CC3)CC2)ccc1Nc1nc(Nc2ccccc2SC)c2c(ccn2C)n1"
Output line: 1400

Input line: Do the same for "CN1CCN(c2ccc(Nc3nc(Nc4ccccc4S(C)(=O)=O)c4c(ccn4C)n3)cc2)CC1" please
Output line: 3780

Input line: Follow-up item: "COc1cc(N2CCC(N3CCN(C)CC3)CC2)ccc1Nc1nc(NCc2ccccc2S(=O)(=O)C(C)C)c2c(ccn2C)n1"
Output line: 1820

Input line: What do we get for "CSc1ccccc1Nc1nc(Nc2ccc(N3CCC(O)CC3)cc2)nc2ccn(C)c12" ?
Output line: 456

Input line: Request: "COc1cc(N2CCN(C)CC2)ccc1Nc1nc(NCc2ccccc2S(C)(=O)=O)c2c(ccn2C)n1"
Output line: 1980

Input line: Same for "COC(=O)c1cccc(Nc2nc(Nc3ccc(N4CCC(O)CC4)cc3)nc3ccn(C)c23)c1"
Output line: 4470
